Listed below: pIC50 values for each entry.
assay: Inhibition of Escherichia coli RNAP assessed as incorporation of [5,6-3H]UTP preincubated for 10 mins followed by DNA template and ATP, CTP, GTP, UTP, [5,6-3H]UTP addition measured after 10 mins by scintillation counting analysis
# answer = number (no unit)

| smi | pIC50 |
| --- | --- |
| CCN(Cc1ccccc1)C(=O)Nc1cc(-c2ccc(C(F)(F)F)cc2)sc1C(=O)O | 4.29 |

Reported pIC50, compound CCN(Cc1ccccc1)C(=O)Nc1cc(-c2ccc(Cl)c(C(F)(F)F)c2)sc1C(=O)O : ____
4.68

* * *

Tested on: Escherichia coli
assay: Inhibition of Escherichia coli RNAP assessed as incorporation of [5,6-3H]UTP at 100 uM preincubated for 10 mins followed by DNA template and ATP, CTP, GTP, UTP, [5,6-3H]UTP addition measured after 10 mins by scintillation counting analysis relative to control
endpoint.label: inhibition (%)
Report as a plain number; the unit % is understood.

Sample records with inhibition:
| smi | unit | inhibition |
| --- | --- | --- |
| CC(C)NC(=O)Nc1cc(-c2ccc(Cl)c(Cl)c2)sc1C(=O)O | % | 26 |
| CC(C)(C)OC(=O)c1c(NC(=O)Nc2ccccc2)sc2c1CCCCCC2 | % | 4 |
| CN(Cc1ccccc1)C(=O)Nc1cc(-c2ccc(Cl)c(Cl)c2)sc1C(=O)O | % | 12 |

Continue with the next compound.
Find the recorded inhibition belonging to NC(=O)Nc1cc(-c2ccc(Cl)c(Cl)c2)sc1C(=O)O and report it.
26
